Every entry's value here was drawn from PubChem BioAssay.

measurement target: Dickkopf-related protein 1 (Homo sapiens) (UniProt O94907)
Sequence (O94907 whole entry, looked up): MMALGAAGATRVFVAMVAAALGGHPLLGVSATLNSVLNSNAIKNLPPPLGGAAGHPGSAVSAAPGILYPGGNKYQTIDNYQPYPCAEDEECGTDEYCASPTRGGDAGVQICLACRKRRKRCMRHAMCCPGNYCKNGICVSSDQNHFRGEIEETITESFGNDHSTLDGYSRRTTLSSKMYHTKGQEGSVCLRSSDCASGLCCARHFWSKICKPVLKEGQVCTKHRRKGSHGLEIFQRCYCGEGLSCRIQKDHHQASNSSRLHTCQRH
test method notes: DKK1 binders on small-molecule microarrays, primary screen, biochemical, small-molecule microarray, 635 nm fluorescence scan (AID 1106);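 further: score merges emission near 667 nm with signal to noise over three replicate slides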
condition summary: DKK1 binding, higher = more signal
Consider the reported composite z-score of an entry and match it to a band in interval 1 (below -0.5), interval 2 (-0.5 to below 0.1), interval 3 (0.1 or more)

Hi there! Could you help me figure out the category for CCCC[C@@H]1C[C@H]1[C@@H](NC(=O)C(C)(C)C)c1ccc(C(F)(F)F)cc1 please?
interval 1

State the band of COC(=O)[C@]1(CCC(=O)OC(C)(C)C)N=C(c2ccc(OCCCO)cc2)O[C@@H]1c1ccccc1CN=[N+]=[N-]
interval 1

Please report the category associated with C=CCOC(=O)[C@H]1[C@@H]2C(=O)O[C@@H](c3ccccc3)[C@@H](c3ccccc3)N2[C@@H](c2ccc(OCCOC(=O)[C@H]3C[C@H]4C(=O)N[C@@H](CCCCNC(C)=O)C(=O)N4[C@H]3c3cccc(OCCO)c3)cc2)[C@]12C(=O)Nc1ccccc12 , nothing else.
interval 3

Field: class (composite z-score) — entry: COC(=O)[C@@]1(Cc2ccc(F)cc2)[C@H]2c3cc(C(=O)N(C)C)n(Cc4ccccc4)c3C[C@H]2CN1C(=O)c1ccccc1
interval 2

Given CCOC(=O)C[C@H]1[C@H](OC(=O)c2ccc(C(=O)c3ccccc3)cc2)[C@@H](NC(=O)c2ccccc2)c2cc(OCCCO)ccc2N1C(=O)c1ccc2ccccc2n1 , name the class its composite z-score places it in.
interval 2

Returns: class label. Input: CC1CC/C=C\[C@H]2OC34C=CCN(C(C)(C)C)C(=O)[C@H]3N(CCO)C(=O)[C@@H]4C2C(=O)O1 (stereo not given in full)
interval 1

Kindly state the category for this compound: O=C(NCCN1CCOCC1)C1N=C(c2ccc(OCCCO)cc2)N(c2ccccc2)O1 (stereo not given)
interval 3

Classify this compound: COc1ccc(C(=O)Nc2ccc(CN3C(=O)[C@]4(O[C@H](CCO)[C@@H]([Si](C)(C)c5ccc(OC)cc5)[C@@H]4C)c4ccccc43)cc2)cc1
interval 3

* * *

Give z-score for every item shown.
test method notes: basal 3T3-L1 adipocyte mitochondrial potential changes, profiling panel, cell-based, JC-1 fluorescence, 3T3-L1 adipocytes, 24 h, 100 nL compound (AID 1168); further: test concentration not given here
condition summary: JC-1 mitochondrial fluorescence, higher = more signal, called active from +8 up or from −8 down
I'd appreciate a reply containing only the number, no unit.

Give recorded z-score. CCCc1cc2c(n1Cc1cc(F)cc(F)c1)C(C)C1CN(C(=O)c3ccccc3)C(C)(C(=O)OC)C21 (stereo not given)
-1.98

Give the value of z-score reported for the following: COC(=O)[C@@]1(Cc2ccc(F)cc2)[C@H]2c3cc(C(=O)N4CCCC4)n(Cc4ccc(S(C)(=O)=O)cc4)c3C[C@H]2CN1C(=O)c1ccccc1
-1.3

Answer with reported z-score of COC(=O)[C@H](Cc1ccccc1)N1CC2=C[C@@H](C3CC3)n3c(=O)n(C)c(=O)n3[C@H]2[C@@H]1[C@@H](O)Cc1ccccc1
-1.06

Assign z-score to the following record: O=C(NC1CC1)[C@@H]1c2ccccc2C(=O)N(Cc2ccccc2Cl)[C@H]1c1ccc(CO)cc1
0.623

Report z-score, nothing else, for this compound: O=C1NC(=O)C2C1C=CC(C(O)c1cc(C(F)(F)F)cc(C(F)(F)F)c1)N2Nc1ccccn1 (stereo not given)
-0.169

Give a short answer stating reported z-score for CCOC(=O)C1=CC[C@@H](c2ccccc2)N(S(=O)(=O)c2ccc(C)cc2)[C@H]1c1ccccc1C .
-0.134

# return recorded z-score for input O=C(c1ccccc1)N1C(=O)[C@@]2(Cc3ccccc31)N=C(c1ccc(OCCCO)cc1)O[C@H]2c1ccccc1
0.479

Answer with the recorded z-score of CC1(C)[C@@H]2CC(C(O)C3C=CC4C(=O)N(c5ccccc5)C(=O)C4N3Nc3ccc([N+](=O)[O-])cc3)=C[C@H]1C2 (stereo not given in full) only.
-2.48

Tell me its z-score given CCc1cccc(NC(=O)O[C@H]2[C@H](OC(=O)Nc3ccccc3-c3ccccc3)[C@@H](OC(=O)Nc3ccccc3-c3ccccc3)[C@@H](OC)O[C@@H]2CO)c1 as the entry.
1.66

Please report z-score for the following compound: C=C[C@H](CO[Si](CC)(CC)CC)N(Cc1ccc(OC(C)=O)c(OC)c1)S(=O)(=O)c1ccc(Br)cc1
1.07
